Biological target: serotonin 5-HT3A receptor (Homo sapiens, UniProt P46098)
Sequence (P46098 24-478): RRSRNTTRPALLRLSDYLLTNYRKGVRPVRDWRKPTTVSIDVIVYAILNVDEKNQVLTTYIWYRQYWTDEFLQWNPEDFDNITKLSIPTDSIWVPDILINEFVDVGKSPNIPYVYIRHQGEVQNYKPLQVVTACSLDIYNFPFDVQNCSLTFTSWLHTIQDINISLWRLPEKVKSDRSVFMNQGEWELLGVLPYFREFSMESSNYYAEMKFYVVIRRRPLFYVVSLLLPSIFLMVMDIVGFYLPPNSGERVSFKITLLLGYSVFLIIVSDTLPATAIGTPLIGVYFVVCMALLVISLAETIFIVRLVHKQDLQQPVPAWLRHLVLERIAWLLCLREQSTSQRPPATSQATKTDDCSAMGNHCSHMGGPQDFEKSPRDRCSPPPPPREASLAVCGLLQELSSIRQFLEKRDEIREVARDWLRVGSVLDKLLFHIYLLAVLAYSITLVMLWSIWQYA
Assay: Assay for 5-HT3A receptor: two-electrode voltage clamp in Xenopus oocytes, inhibition of 5-HT-induced inward current
Format: cell-based
Details: 5-HT3A receptor expressed in Xenopus laevis oocytes; from concentration-response curves
PARAMETER: nH (Hill coefficient)

{"MOLECULE": "COc1ccccc1Cn1c(=O)[nH]c2cc(C(=O)NCCN3CCCCC3)ccc2c1=O [Compound 7]", "TGT": "serotonin 5-HT3A receptor (Homo sapiens, UniProt P46098)", "nH (Hill coefficient)": 1.1}
{"MOLECULE": "O=C(NCCN1CCCCC1)c1ccc2c(=O)n(C3CCCCC3)c(=O)[nH]c2c1 [Compound 10]", "TGT": "serotonin 5-HT3A receptor (Homo sapiens, UniProt P46098)", "nH (Hill coefficient)": 1.1}
{"MOLECULE": "O=C(NCCN1CCCCC1)c1ccc2c(=O)n(Cc3ccc(Cl)cc3)c(=O)[nH]c2c1 [Compound 14]", "TGT": "serotonin 5-HT3A receptor (Homo sapiens, UniProt P46098)", "nH (Hill coefficient)": 1.2}
{"MOLECULE": "Cn1c(=O)[nH]c2cc(C(=O)NCCN3CCCCC3)ccc2c1=O [Compound 12]", "TGT": "serotonin 5-HT3A receptor (Homo sapiens, UniProt P46098)", "nH (Hill coefficient)": 1.4}
{"MOLECULE": "O=C(NCCN1CCCCC1)c1ccc2c(=O)n(Cc3ccccc3F)c(=O)[nH]c2c1 [Compound 4]", "TGT": "serotonin 5-HT3A receptor (Homo sapiens, UniProt P46098)", "nH (Hill coefficient)": 1.4}
{"MOLECULE": "COc1ccc(-n2c(=O)[nH]c3cc(C(=O)NCCN4CCCCC4)ccc3c2=O)cc1 [Compound 3]", "TGT": "serotonin 5-HT3A receptor (Homo sapiens, UniProt P46098)", "nH (Hill coefficient)": 1.4}
{"MOLECULE": "COc1ccc(Cn2c(=O)[nH]c3cc(C(=O)NCCN4CCCCC4)ccc3c2=O)cc1 [Compound 9]", "TGT": "serotonin 5-HT3A receptor (Homo sapiens, UniProt P46098)", "nH (Hill coefficient)": 1.7}
{"MOLECULE": "CCCn1c(=O)[nH]c2cc(C(=O)NCCN3CCCCC3)ccc2c1=O [Compound 11]", "TGT": "serotonin 5-HT3A receptor (Homo sapiens, UniProt P46098)", "nH (Hill coefficient)": 1.3}

[A] CCC1CCCCN1CCCNC(=O)c1ccc2c(=O)n(Cc3ccc(Cl)cc3)c(=O)[nH]c2c1 (stereo not shown) [Compound 18]
[B] O=C(NCCCN1CCOCC1)c1ccc2c(=O)n(Cc3ccc(Cl)cc3)c(=O)[nH]c2c1 [Compound 16]
Consider A and B . Which of these has its nH (Hill coefficient) at a higher number? Give the chosen item's label as your response.
B
